Please go through the items and note down their t1/2.
Biological target: anti-CD28 Fab
Sequence (VH, as listed by the source, chain 1 of 2): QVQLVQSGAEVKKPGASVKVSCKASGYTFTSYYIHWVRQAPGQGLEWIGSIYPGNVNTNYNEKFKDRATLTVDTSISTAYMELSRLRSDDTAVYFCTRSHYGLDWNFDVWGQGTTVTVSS
Sequence (VL, as listed by the source, chain 2 of 2): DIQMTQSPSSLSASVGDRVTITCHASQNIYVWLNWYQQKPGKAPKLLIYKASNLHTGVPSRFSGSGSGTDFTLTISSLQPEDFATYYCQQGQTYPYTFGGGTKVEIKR
Assay: BLI (Octet): biotinylated peptide on streptavidin sensor, anti-CD28 Fab titrated in solution, 1:1 model
Where no end group is shown, it is not given here.

Task: Return reported t1/2. Input binder: YCAGHAWQYINKCL (not fully specified; cysteine pairing not given here; also: biotinylated, site not given here) [Peptide-87]
Result: 36 s

Task: Give reported t1/2 value for YCEGHLPEYRNKCL (cysteine pairing not given here; also: biotinylated, site not given here) [Peptide-132]
Result: 48 s

Task: Return value of t1/2 for input YCEGHLPEYREKCL (not fully specified; cysteine pairing not given here; also: biotinylated, site not given here) [Peptide-126] , no commentary.
Result: 36 s
